The reader will find reported pIC50 values listed item by item below.
# target.of.assay: angiotensin II receptor
# experiment.notes: displacement of 125I- or 3H-angiotensin II from receptor preparations from various organs (liver, lung, adrenal gland, brain etc.)
# stated.conditions: "according to the abovementioned process"; which of the two binding methods is not stated
Value format note: pIC50 is -log10 of concentration (mol/L); just state the number.

Example entries begin here.
>  <smiles.input>
CCCCc1nc2cccc(C(=O)O)c2n1Cc1ccc(-c2ccccc2S(=O)(=O)NC(=O)OCC)cc1

>  <pIC50>
9.13

$$$$
>  <smiles.input>
CCCCc1nc2cccc(C(=O)O)c2n1Cc1ccc2c(Cl)c(C(=O)O)sc2c1

>  <pIC50>
7.11

$$$$

Now look at this one.
Assay angiotensin II receptor, sample CCCNC(=O)NS(=O)(=O)c1ccccc1-c1ccc(Cn2c(CC)nc3c(C)cc(C)nc32)cc1 , pIC50 read: 8.74
